This section presents compounds with their documented inhibition at 10 µM values.
# targetOfAssay: Recombinant human mPGES-1 (Homo sapiens)
# testName: In-vitro mPGES-1 enzyme inhibition assay (PGE2 formation from PGH2, HTRF detection)
# Assay type: biochemical
# measurementContext: 10 μM test compound; recombinant human mPGES-1 microsomal fraction; read-out: Percentage inhibition at 10 μM
Numeric only. Scale: %

{"columns": ["smilesRepr", "resultUnits", "inhibition at 10 µM"],
 "data": [
  ["CC1(C)Cc2c(c(C(=O)NCC(F)(F)C(F)(F)F)cc3nc(Nc4ccc(F)cc4Cl)[nH]c23)O1", "%", 76.4],
  ["CC1(C)Cc2c(c(C(=O)Nc3cc(C4CC4)ccc3F)cc3nc(Nc4c(Cl)cncc4Cl)[nH]c23)O1", "%", 94.8],
  ["Cc1ccc(NC(=O)c2cc3nc(Nc4c(F)cccc4Cl)n(C)c3c3c2OC(C)(C)C3)c(F)c1", "%", 100],
  ["COCCCNC(=O)c1cc2nc(Nc3c(Cl)cccc3Cl)[nH]c2c2c1OC(C)(C)C2", "%", 98],
  ["Cn1c(Nc2c(Cl)cncc2Cl)nc2cc(C(=O)Nc3ccc(C(F)(F)F)cc3)c3c(c21)CC(C)(C)O3", "%", 94.1]
]}

Input line: Please tell me: inhibition at 10 µM of CC1(C)Cc2c(c(C(=O)Nc3ccc(F)cc3)cc3nc(Nc4c(Cl)cncc4Cl)[nH]c23)O1 , system Recombinant human mPGES-1 (Homo sapiens)?
Output line: 95

Input line: Please tell me: inhibition at 10 µM of Cc1cccc(Cl)c1Nc1nc2cc(C(=O)Nc3ccc(F)c(C(F)(F)F)c3)c3c(c2[nH]1)CC(C)(C)O3 , system Recombinant human mPGES-1 (Homo sapiens)?
Output line: 96.5

###

# targetOfAssay: Recombinant human mPGES-1 (Homo sapiens, UniProt O14684)
# Sequence (O14684 whole entry): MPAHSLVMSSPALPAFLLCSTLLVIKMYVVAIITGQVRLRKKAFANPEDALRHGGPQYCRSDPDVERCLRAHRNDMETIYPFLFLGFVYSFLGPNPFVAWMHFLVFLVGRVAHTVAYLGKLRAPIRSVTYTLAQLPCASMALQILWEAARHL
# testName: In-vitro mPGES-1 enzyme inhibition assay (PGE2 formation from PGH2, HTRF detection)
# Assay type: biochemical
# measurementContext: 1 μM test compound; recombinant human mPGES-1 microsomal fraction; read-out: Percentage inhibition at 1 μM
This section presents compounds with their documented inhibition at 1 µM values.
Numeric only. Scale: %

{"columns": ["compound", "targetOfAssay", "inhibition at 1 µM / %"],
 "data": [
  ["CC(O)CNC(=O)c1cc2nc(Nc3c(Cl)cccc3Cl)[nH]c2c2c1OC(C)(C)C2 (stereo not shown)", "Recombinant human mPGES-1 (Homo sapiens, UniProt O14684)", 43.8],
  ["Cn1c(Nc2c(Cl)cncc2Cl)nc2cc(C(=O)Nc3ccc(C(F)(F)F)cc3)c3c(c21)CC(C)(C)O3", "Recombinant human mPGES-1 (Homo sapiens, UniProt O14684)", 96.3],
  ["CC1(C)Cc2c(c(C(=O)Nc3cccc(C4CC4)c3)cc3nc(Nc4c(F)cccc4Cl)[nH]c23)O1", "Recombinant human mPGES-1 (Homo sapiens, UniProt O14684)", 99.4]
]}

Please turn your attention to the following entry.
Input line: What does the data say about its inhibition at 1 µM? Entry: Cc1cc2c(o1)c(C(=O)Nc1ccc(Br)cn1)cc1nc(Nc3c(Cl)cccc3Cl)[nH]c12
Output line: 93.9

###

This section presents compounds with their documented inhibition at 1 µM values.
# targetOfAssay: Recombinant human mPGES-1 (Homo sapiens)
# testName: In-vitro mPGES-1 enzyme inhibition assay (PGE2 formation from PGH2, HTRF detection)
# Assay type: biochemical
# measurementContext: 1 μM test compound; recombinant human mPGES-1 microsomal fraction; read-out: Percentage inhibition at 1 μM
Numeric only. Scale: %

Input line: What does the data say about its inhibition at 1 µM? Entry: Cn1c(Nc2c(F)cccc2Cl)nc2cc(C(=O)Nc3ccc(C(F)(F)F)cn3)c3c(c21)CC(C)(C)O3 [Example-157]
Output line: 98.9

Input line: What does the data say about its inhibition at 1 µM? Entry: CC1(C)Cc2c(c(C(=O)NCC3CCCCC3)cc3nc(Nc4c(Cl)cncc4Cl)[nH]c23)O1 [Example-27]
Output line: 93.7

Input line: What does the data say about its inhibition at 1 µM? Entry: CC1(C)Cc2c(c(C(=O)NCc3ccccc3C(F)(F)F)cc3nc(Nc4c(F)cccc4Cl)[nH]c23)O1 [Example-80]
Output line: 93.2

Input line: What does the data say about its inhibition at 1 µM? Entry: CC(C)CCNC(=O)c1cc2nc(Nc3c(Cl)cccc3Cl)[nH]c2c2c1OC(C)(C)C2 [Example-46]
Output line: 100

Input line: What does the data say about its inhibition at 1 µM? Entry: CC1(C)Cc2c(c(C(=O)Nc3ccc(C#N)cc3)cc3nc(Nc4c(Cl)cccc4Cl)[nH]c23)O1 [Example-59]
Output line: 96.8

Input line: What does the data say about its inhibition at 1 µM? Entry: CC1(C)Cc2c(c(C(=O)Nc3ccc(C(C)(C)C)cc3)cc3nc(Nc4c(F)cccc4Cl)[nH]c23)O1 [Example-114]
Output line: 99.4

Input line: What does the data say about its inhibition at 1 µM? Entry: Cc1cccc(Cl)c1Nc1nc2cc(C(=O)Nc3cc(C4CC4)ccc3F)c3c(c2[nH]1)CC(C)(C)O3 [Example-136]
Output line: 89.4

Input line: What does the data say about its inhibition at 1 µM? Entry: CC1(C)Cc2c(c(C(=O)Nc3ccc(C(F)(F)F)cc3)cc3nc(Nc4ccc(F)cc4Cl)[nH]c23)O1 [Example-86]
Output line: 95

Input line: What does the data say about its inhibition at 1 µM? Entry: COCCn1c(Nc2c(Cl)cccc2Cl)nc2cc(C(=O)Nc3ccccc3C(F)(F)F)c3c(c21)CC(C)(C)O3 [Example-100]
Output line: 96.6

Input line: What does the data say about its inhibition at 1 µM? Entry: CC1(C)Cc2c(c(C(=O)NC3CCCCC3)cc3nc(Nc4c(Cl)cncc4Cl)sc23)O1 [Example-28]
Output line: 87.3

Input line: What does the data say about its inhibition at 1 µM? Entry: CC1(C)Cc2c(c(C(=O)NCCc3ccc(Cl)cc3)cc3nc(Nc4c(Cl)cccc4Cl)[nH]c23)O1 [Example-83]
Output line: 87.7

Input line: What does the data say about its inhibition at 1 µM? Entry: Cc1nc2c(o1)c(C(=O)Nc1ccc(F)cc1)cc1nc(Nc3c(Cl)cccc3Cl)[nH]c12 [Example-177]
Output line: 80.8
